Target: BACE1 (Homo sapiens)
Construct: Human HEK293 cells which are stably transfected with a vector expressing a cDNA of the human APP wt gene (APP695); endogenous in cells; host or cells: HEK293 (human), stably transfected with human APP695 wt cDNA
Assay: Cellular Aβ-lowering assay (Aβ40 ELISA of culture supernatant)
Format: cell-based
Conditions: dual-site BACE1 inhibitors; HEK293 cells stably transfected with human APP wt (APP695); 18-20 hrs incubation; Aβ40 in supernatant; read-out: IC 50
Square brackets hold non-standard residues; d marks the D form. Peptide text beside a SMILES is read from it. Sta = CC(C)C[C@H](N)[C@@H](O)CC(=O)O
measurement-label: IC50

compound	measurement-label	result
CC[C@H](C)[C@H](NC(=O)[C@H](Cc1ccccc1)NC(=O)[C@H](Cc1ccc(O)cc1)NC(=O)[C@@H](CCCCN)NC(=O)[C@@H](N)Cc1ccc(O)cc1)C(=O)N1CCC[C@H]1C(=O)N[C@@H](CC(C)C)C(=O)NCC(=O)N[C@H](CCCCN)C(=O)NCC(=O)N[C@@H](CCC(=O)O)C(=O)N[C@H](C(=O)N[C@@H](CC(N)=O)C(=O)N[C@@H](CC(C)C)[C@@H](O)CC(=O)N[C@H](C(=O)N[C@@H](C)C(=O)N[C@@H](CCC(=O)O)C(=O)N1CCC[C@@H]1C(N)=O)C(C)C)C(C)C [Example 31] (H-Y[dK]YFIPLG[dK]GEVN[Sta]VAE[dP]-NH2)	IC50	> 40 µM

* * *

Biological target: BACE1 (Homo sapiens, UniProt P56817)
Construct: Human HEK293 cells which are stably transfected with a vector expressing a cDNA of the human APP wt gene (APP695); endogenous in cells; host or cells: HEK293 (human), stably transfected with human APP695 wt cDNA
Sequence (P56817 46-501): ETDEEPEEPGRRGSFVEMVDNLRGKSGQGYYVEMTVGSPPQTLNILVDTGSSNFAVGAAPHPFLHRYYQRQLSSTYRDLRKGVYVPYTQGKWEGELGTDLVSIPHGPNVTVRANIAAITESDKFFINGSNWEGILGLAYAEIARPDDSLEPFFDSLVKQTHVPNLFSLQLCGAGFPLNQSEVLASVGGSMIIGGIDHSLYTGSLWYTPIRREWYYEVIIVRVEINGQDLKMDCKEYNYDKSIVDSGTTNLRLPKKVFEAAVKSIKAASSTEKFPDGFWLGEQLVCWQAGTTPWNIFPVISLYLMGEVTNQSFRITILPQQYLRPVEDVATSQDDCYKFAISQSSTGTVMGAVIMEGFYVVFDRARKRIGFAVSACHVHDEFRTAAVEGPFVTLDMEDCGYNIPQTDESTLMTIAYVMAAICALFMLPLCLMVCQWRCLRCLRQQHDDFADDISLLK
Experiment: Cellular Aβ-lowering assay (Aβ40 ELISA of culture supernatant)
Type: cell-based
Conditions: dual-site BACE1 inhibitors; HEK293 cells stably transfected with human APP wt (APP695); 18-20 hrs incubation; Aβ40 in supernatant; read-out: IC 50
Square brackets hold non-standard residues; d marks the D form. Peptide text beside a SMILES is read from it. Sta = CC(C)C[C@H](N)[C@@H](O)CC(=O)O
measurement-label: IC50

compound	measurement-label	result
CC(C)C[C@H](NC(=O)[C@@H]1CCCN1C(=O)[C@@H](CCCCN)NC(=O)[C@H](Cc1ccccc1)NC(=O)[C@H](Cc1ccc(O)cc1)NC(=O)[C@@H]1CCCN1C(=O)[C@@H](N)Cc1ccc(O)cc1)C(=O)NCC(=O)N[C@H](CCCCN)C(=O)NCC(=O)N[C@@H](CCC(=O)O)C(=O)N[C@H](C(=O)N[C@@H](CC(N)=O)C(=O)N[C@@H](CC(C)C)[C@@H](O)CC(=O)N[C@H](C(=O)N[C@@H](C)C(=O)N[C@@H](CCC(=O)O)C(=O)N1CCC[C@@H]1C(N)=O)C(C)C)C(C)C [Example 13] (H-YPYF[dK]PLG[dK]GEVN[Sta]VAE[dP]-NH2)	IC50	> 40 µM

* * *

Molecular target: BACE1 (Homo sapiens)
Construct: Human HEK293 cells which are stably transfected with a vector expressing a cDNA of the human APP wt gene (APP695); endogenous in cells; host or cells: HEK293 (human), stably transfected with human APP695 wt cDNA
Assay: Cellular Aβ-lowering assay (Aβ40 ELISA of culture supernatant)
Type: cell-based
Conditions: dual-site BACE1 inhibitors; HEK293 cells stably transfected with human APP wt (APP695); 18-20 hrs incubation; Aβ40 in supernatant; read-out: IC 50
Counter-ions that a name gives are not always drawn.
Documented IC50 across a set of compounds

compound	IC50
CC[C@H](C)[C@H](NC(=O)[C@H](Cc1ccccc1)NC(=O)[C@H](Cc1ccc(O)cc1)NC(=O)[C@@H]1CCCN1C(=O)[C@@H](N)Cc1ccc(O)cc1)C(=O)N1CCC[C@H]1C(=O)N[C@@H](CC(C)C)C(=O)NCC(=O)NCC(=O)NCC(=O)N[C@@H](CCC(=O)O)C(=O)N[C@H](C(=O)N[C@@H](CC(N)=O)C(=O)N[C@@H](CC(C)C)[C@@H](O)CC(=O)N[C@H](C(=O)N[C@@H](C)C(=O)N[C@@H](CCC(=O)O)C(=O)N1CCC[C@@H]1C(N)=O)C(C)C)C(C)C [Example 2, TFA]	420 nM
CC[C@H](C)[C@H](NC(=O)[C@H](Cc1ccccc1)NC(=O)[C@H](Cc1ccc(O)cc1)NC(=O)[C@@H]1CCCN1C(=O)[C@@H](N)Cc1ccc(O)cc1)C(=O)N1CCC[C@H]1C(=O)N[C@H](CCCCN)C(=O)NCC(=O)N[C@H](CCCCN)C(=O)NCC(=O)N[C@@H](CCC(=O)O)C(=O)N[C@H](C(=O)N[C@@H](CC(N)=O)C(=O)N[C@@H](CCSC)[C@@H](O)CC(=O)N[C@H](C(=O)N[C@@H](C)C(=O)N[C@@H](CCC(=O)O)C(=O)N1CCC[C@H]1C(N)=O)C(C)C)C(C)C [Example 18]	15 nM
